Test system: Streptococcus pyogenes
Experiment Summary: Compounds were evaluated in vivo for antibacterial activity for mouse protection against Streptococcus pyogenes C 203 after oral administration
Assay type: functional
Label MET when PD50 < 10 mg/kg; otherwise NOT MET.

• CN[C@H](C)[C@H]1CCN(c2cc3c(cc2F)c(=O)c(C(=O)O)cn3C2CC2)C1 (mixture of isomers) = MET
• CCN[C@@H](C)[C@@H]1CCN(c2nc3c(cc2F)c(=O)c(C(=O)O)cn3C2CC2)C1 = NOT MET
• CN[C@@H](C)[C@@H]1CCN(c2nc3c(cc2F)c(=O)c(C(=O)O)cn3C2CC2)C1 = NOT MET
• C[C@@H](N)[C@H]1CCN(c2cc3c(cc2F)c(=O)c(C(=O)O)cn3C2CC2)C1 = NOT MET
• CCN[C@@H](C)[C@@H]1CCN(c2nc3c(cc2F)c(=O)c(C(=O)O)cn3C2CC2)C1 (racemic) = MET
• CC(N)C1CCN(c2c(F)cc3c(=O)c(C(=O)O)cn(C4CC4)c3c2C(F)(F)F)C1 (stereo in doubt; 36F-R,R) = MET
• CN[C@H](C)[C@H]1CCN(c2cc3c(cc2F)c(=O)c(C(=O)O)cn3C2CC2)C1 = NOT MET
• C[C@H](N)[C@H]1CCN(c2c(F)c(N)c3c(=O)c(C(=O)O)cn(C4CC4)c3c2F)C1 (stereo in doubt; 32F-S,R) = NOT MET
• CC(N)C1CCN(c2c(F)cc3c(=O)c(C(=O)O)cn(C4CC4)c3c2C(F)(F)F)C1 (racemic) = MET
• CCN[C@@H](C)[C@@H]1CCN(c2c(F)c(N)c3c(=O)c(C(=O)O)cn(C4CC4)c3c2F)C1 (stereo in doubt; 32H-S,R) = MET
• CN[C@H](C)[C@H]1CCN(c2c(F)c(N)c3c(=O)c(C(=O)O)cn(C4CC4)c3c2F)C1 = NOT MET
• C[C@@H](N)[C@H]1CCN(c2nc3c(cc2F)c(=O)c(C(=O)O)cn3C2CC2)C1 (racemic) = NOT MET
• C[C@@H](N)[C@H]1CCN(c2nc3c(cc2F)c(=O)c(C(=O)O)cn3C2CC2)C1 (mixture of isomers) = MET
• C[C@@H](N)[C@H]1CCN(c2cc3c(cc2F)c(=O)c(C(=O)O)cn3C2CC2)C1 (racemic) = NOT MET

* * *

Tested on: Enterobacter cloacae
Experiment Summary: Minimum inhibitory concentration in vitro against Enterobacter cloacae MA 2646
Assay type: functional
Assay Conditions: Enterobacter cloacae; read-out: MIC
Label true (1) when MIC < 0.1 µg/mL; otherwise false (0).

* NCC1CCN(c2c(F)c(N)c3c(=O)c(C(=O)O)cn(C4CC4)c3c2F)C1 (stereo not given) | true (1)
* COc1c(N2CCC(CN)C2)c(F)cc2c(=O)c(C(=O)O)cn(C3CC3)c12 (stereo not given) | true (1)
* CCNCC1CCN(c2nc3c(cc2F)c(=O)c(C(=O)O)cn3C2CC2)C1 (stereo not given) | false (0)
* CN[C@H](C)[C@@H]1CCN(c2c(F)c(N)c3c(=O)c(C(=O)O)cn(C4CC4)c3c2F)C1 | true (1)
* CCn1cc(C(=O)O)c(=O)c2cc(F)c(N3CCC(C(C)NC)C3)c(OC)c21 (racemic) | false (0)
* CCN[C@H](C)[C@@H]1CCN(c2c(F)cc3c(=O)c(C(=O)O)cn(C4CC4)c3c2OC)C1 | false (0)
* NC1CCN(c2cc3c(cc2F)c(=O)c(C(=O)O)cn3C2CC2)C1 (stereo not given) | true (1)
* Nc1c(F)c(N2CCC(N)C2)cc2c1c(=O)c(C(=O)O)cn2C1CC1 (stereo not given) | true (1)
* CCN[C@H](C)[C@H]1CCN(c2c(F)c(N)c3c(=O)c(C(=O)O)cn(C4CC4)c3c2F)C1 (racemic) | true (1)
* C[C@@H](N)[C@@H]1CCN(c2cc3c(cc2F)c(=O)c(C(=O)O)cn3C2CC2)C1 | false (0)
* C[C@@H](N)[C@@H]1CCN(c2c(F)c(N)c3c(=O)c(C(=O)O)cn(C4CC4)c3c2F)C1 | true (1)
* CCNCC1CCN(c2nc3c(cc2F)c(=O)c(C(=O)O)cn3-c2ccc(F)cc2F)C1 (stereo not given) | false (0)
* CCN[C@H](C)[C@@H]1CCN(c2nc3c(cc2F)c(=O)c(C(=O)O)cn3C2CC2)C1 | false (0)
* CN[C@H](C)[C@@H]1CCN(c2c(F)cc3c(=O)c(C(=O)O)cn(C4CC4)c3c2C(F)(F)F)C1 | false (0)
* CCN[C@H](C)[C@H]1CCN(c2nc3c(cc2F)c(=O)c(C(=O)O)cn3-c2ccc(F)cc2F)C1 (racemic) | false (0)
* NC1CCN(c2nc3c(cc2F)c(=O)c(C(=O)O)cn3C2CC2)C1 (stereo not given) | true (1)
* C[C@@H](N)[C@H]1CCN(c2c(F)c(N)c3c(=O)c(C(=O)O)cn(C4CC4)c3c2F)C1 (racemic) | true (1)
* CN[C@H](C)[C@@H]1CCN(c2cc3c(cc2F)c(=O)c(C(=O)O)cn3C2CC2)C1 | false (0)
* CC(N)C1CCN(c2cc3c(c(N)c2F)c(=O)c(C(=O)O)cn3C2CC2)C1 (mixture of isomers) | true (1)
* C[C@H](N)[C@H]1CCN(c2c(F)c(N)c3c(=O)c(C(=O)O)cn(C4CC4)c3c2F)C1 (stereo in doubt; 32F-S,S) | true (1)
* C[C@H](N)[C@H]1CCN(c2nc3c(cc2F)c(=O)c(C(=O)O)cn3C2CC2)C1 | true (1)
